Experiment: Apparent permeability coefficient, Papp of the compound at pH 7.4 incubated for 4 hrs by UPLC/MS/MS analysis
Format: ADME
Details: not told, pH 7.4
measure.name: Papp at 4 h (×10⁻⁶ cm/s)
Express your answer in ×10⁻⁶ cm/s, writing the number without its unit.

Worked cases, Papp at 4 h given:
Record Cn1cccc1C(=O)N1CCN(C(=O)Nc2ccc(N3CCC(C(=O)N4CCN(c5ccc6c(c5)C(=O)N(C5CCC(=O)NC5=O)C6=O)CC4)CC3)cc2)CC1 (configuration not stated) , field Papp at 4 h: 0.009

Record O=C1CCC(c2ccc(NCC(=O)N3CCN(C(=O)C4CCN(c5ccc(NC(=O)c6cnc(Oc7ccccc7)nc6)cc5)CC4)CC3)cc2)C(=O)N1 (configuration not stated) , field Papp at 4 h: 0.2

Record O=C1CCC(N2C(=O)c3cc(F)c(N4CCN(C(=O)C5CCN(c6ccc(NC(=O)c7cnc(Oc8ccccc8)nc7)cc6)CC5)CC4)cc3C2=O)C(=O)N1 (configuration not stated) , field Papp at 4 h: 0.007

Record "Cn1cccc1C(=O)N1CCN(C(=O)Nc2ccc(N3CCC(C(=O)N4CCOCC4)CC3)cc2)CC1" , field Papp at 4 h: 0.21

More entries:
Record O=C1CCC(N2C(=O)c3cccc(N4CCN(C(=O)C5CCN(c6ccc(NC(=O)c7cnc(Oc8ccccc8)nc7)cc6)CC5)CC4)c3C2=O)C(=O)N1 (configuration not stated) , field Papp at 4 h: 0.07

Record O=C1CCC(N2C(=O)c3ccc(N4CCN(C(=O)C5CCN(c6ccc(NC(=O)c7cnc(Oc8ccccc8)nc7)cc6)CC5)CC4)cc3C2=O)C(=O)N1 (configuration not stated) , field Papp at 4 h: 0.049

Record "O=C(Nc1ccc(N2CCC(C(=O)N3CCOCC3)CC2)cc1)c1cnc(Oc2ccccc2)nc1" , field Papp at 4 h: 3.01
